- protocol: The drug is tested on WLS-086 corresponding to human gut metagenome with ENA study accession number: PRJEB37062 and ENA sample accession number: ERS12561752 for biotransformation under anaerobic condition. The drug concentrations were measured over 9 timepoints collected between 0 and 24 hours of incubation by liquid-chromatography-coupled mass spectrometry (LC–MS); further: call rule not given here
- testParameters: 2 µM

molecule: CN(C)C(=O)Oc1cc(OC(=O)N(C)C)cc(C(O)CNC(C)(C)C)c1 (centres undefined)
Bacterial Biotransformation: Compound metabolized
//
molecule: CN1CCC[C@@H]1CCO[C@](C)(c1ccccc1)c1ccc(Cl)cc1.O=C(O)/C=C/C(=O)O [CLEMASTINE FUMARATE]
Bacterial Biotransformation: Compound metabolized
//
molecule: CC(C)c1c(CN(C)C(C)Cc2ccccc2)n(C)n(-c2ccccc2)c1=O (centres undefined)
Bacterial Biotransformation: Compound metabolized
